target: T1, human CD47 (human, UniProt Q08722 19-139); experiment: SPR (Biacore T100 and ProteOn XPR36)
T1 construct: extracellular domain; also called CD47 ECD
T1 sequence (Q08722 19-139 limits assumed): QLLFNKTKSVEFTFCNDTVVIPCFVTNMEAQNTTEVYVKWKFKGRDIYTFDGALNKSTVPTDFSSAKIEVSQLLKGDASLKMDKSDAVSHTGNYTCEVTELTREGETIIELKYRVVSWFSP
Provide the reported Kd of each item.
# value in nM; strip the unit string

// SIRP-α D1 variant polypeptide of SEQ ID NO: 210 (receptor) EEELQIIQPDKSVLVAAGETATLRCTITSLFPVGPIQWFRGAGPGRELIYNQRDGPFPRVTTVSDTTKRNNMDFSIRIGAITPADAGTYYCVKFRKGIPDDVEFKSGAGTELSVRAKPS : Kd value = 1.65

// SIRP-α D1 variant polypeptide of SEQ ID NO: 206 (receptor) EEELQIIQPDKSVLVAAGETATLRCTITSLRPVGPIQWFRGAGPGRELIYNQRDGPFPRVTTVSDTTKRNNMDFSIRIGAITPADAGTYYCVKFRKGIPDDVEFKSGAGTELSVRAKPS : Kd value = 0.967

// SIRP-α D1 variant polypeptide of SEQ ID NO: 204 (receptor) EEELQIIQPDKSVLVAAGETATLRCTITSLRPVGPIQWFRGAGPGRELIYNQRDGPFPRVTTVSDTTKRNNMDFSIRIGAITPADAGTYYCVKFRKGSPDDVEFKSGAGTELSVRAKPS : Kd value = 0.653
